PROTOCOL DESCRIPTION: RP, Waters ACQUITY UPLC BEH C18, 38 °C, 0.24 mL/min; A: water + 0.1% formic acid, pH 3; B: acetonitrile + 0.1% formic acid, pH 3; gradient (min/%B) 0/0 0.25/0 0.4/9 0.8/17 1.9/100 2.1/100 2.11/0 3/0
STATED CONDITIONS: stereoisomer not certain
Counter-ions that a name gives are not always drawn.
Listed here: items and their measured LC retention time.
Answer in min, number only, no unit symbol.

Examples with answers:
CN1CCCC1c1cccnc1 (racemic) [(-)-Nicotine ( solution 1.0 mg/mL+/-5% in methanol)] ... 0.47
CC1OC(OCC2OC(Oc3c(-c4ccc(O)cc4)oc4cc(O)cc(O)c4c3=O)C(O)C(O)C2O)C(O)C(O)C1O (stereo not drawn) [kaempferol-3-O-rutinoside] ... 1.42
COc1cc(C=CCO)cc(OC)c1O ... 2.13
CC(=O)NC(CC(=O)O)C(=O)O (racemic) ... 0.31
Cc1cnc(=O)[nH]c1N [5-Methylcytosine hydrochloride] ... 0.25

Return reported LC retention time; argument: O=C(O)[C@@H]1C[C@@H](O)CN1 [trans-4-Hydroxy-L-proline]
0.17

Same question for CC(O)C(=O)SCC(NC(=O)CCC(N)C(=O)O)C(=O)NCC(=O)O (stereo not drawn) please.
1.06

Also, O=C(O)Cc1ccc(O)c(O)c1 [3,4-dihydroxyphenylacetic acid] please.
1.16

----------
PROTOCOL DESCRIPTION: RP, Waters ACQUITY UPLC BEH C18, 38 °C, 0.24 mL/min; A: water + 0.1% formic acid, pH 3; B: acetonitrile + 0.1% formic acid, pH 3; gradient (min/%B) 0/0 0.25/0 0.4/9 0.8/17 1.9/100 2.1/100 2.11/0 3/0
STATED CONDITIONS: stereoisomer not certain
Structures can show the parent of a compound that is named as a salt.
Some compounds, each annotated with its measured log10 LC retention time.
Hello, just confirming the data are log10 of LC retention time with units of min.

N[C@@H](Cc1ccc(O)cc1)C(=O)O [L-Tyrosine] ... -0.21
O=C(O)C1(O)CC(O)C(O)C(O)C1 [D-(-)-Quinic acid] ... -0.72
OCC1OC(OC2C(CO)OC(O)(CO)C2O)C(O)C(O)C1O (centres undefined) ... -0.72
O=C(O)CCc1ccc(O)cc1 [3-(4-Hydroxyphenyl)-propionic acid] ... 0.14
N[C@H](CS)C(=O)O [D-Cysteine] ... -0.82

For NCCCC[C@H](N)C(=O)O [L-(+)-Lysine] , what is its reported log10 LC retention time?
-0.82

Further, for O=C1CCNC(=O)N1 [5,6-Dihydrouracil] ?
-0.70

Quick one: CCCC(O)C(=O)O (racemic) [DL-2-Hydroxyvaleric acid sodium salt hydrate]
0.06

Another compound to check: O=C(O)C(=O)Cc1ccccc1 [Sodium phenylpyruvate]
0.13

For N=C(N)c1ccccc1 [Benzamidine hydrochloride hydrate] then?
-0.11

----------
Each entry below carries its recorded LC retention time.
PROTOCOL DESCRIPTION: RP, Waters ACQUITY UPLC BEH C18, 38 °C, 0.24 mL/min; A: water + 0.1% formic acid, pH 3; B: acetonitrile + 0.1% formic acid, pH 3; gradient (min/%B) 0/0 0.25/0 0.4/9 0.8/17 1.9/100 2.1/100 2.11/0 3/0
STATED CONDITIONS: stereoisomer not certain
Write it as a number; the unit min goes unstated.

Completed entries (count: 3):
O=c1[nH]c(=O)c2cn[nH]c2[nH]1 ... 0.7
CS(=O)(=O)CCC(N)C(=O)O (stereo unspecified) ... 0.18
Nc1ccn(C2OC(COP(=O)(O)O)C(O)C2O)c(=O)n1 (stereo unspecified) [Cytidine-5'-monophosphate monohydrate] ... 0.24

Find the recorded LC retention time belonging to `Nc1ccccc1` and report it.
0.42

`CC(C)CCC(=O)O` , same question.
0.56

Entry to check: `N[C@@H](CO)C(=O)O`
0.16
